Molecular target: UniProt Q4U254
Sequence (Q4U254 as listed by the source): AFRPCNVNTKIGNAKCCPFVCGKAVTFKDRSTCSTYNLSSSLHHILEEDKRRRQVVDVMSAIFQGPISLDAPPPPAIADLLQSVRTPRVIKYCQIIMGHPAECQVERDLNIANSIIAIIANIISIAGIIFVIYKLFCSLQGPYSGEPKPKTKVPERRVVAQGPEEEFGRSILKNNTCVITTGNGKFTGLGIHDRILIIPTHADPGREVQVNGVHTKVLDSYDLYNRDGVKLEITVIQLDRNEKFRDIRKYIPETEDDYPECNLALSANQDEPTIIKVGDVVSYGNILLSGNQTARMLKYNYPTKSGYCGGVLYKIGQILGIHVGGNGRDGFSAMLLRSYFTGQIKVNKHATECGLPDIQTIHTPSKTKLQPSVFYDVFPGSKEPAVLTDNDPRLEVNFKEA
Test: Catalytic rate constant (Kobs/[I]) evaluated against human rhinovirus (HRV) serotype 14 3C Protease (3CP)
Conditions: Human rhinovirus B (HRV-14)
measurement type: K obs / 1 (M⁻¹ s⁻¹)
Give your result in M⁻¹ s⁻¹ as a bare value.

Returns the measured K obs / 1 for the input molecule. Input: COc1ccc2c(c1)CCN2C(=O)/C=C/[C@H](CCC(N)=O)NC(=O)[C@H](Cc1ccccc1)NC(=O)[C@H](CC(C)C)NC(=O)OCc1ccccc1
3400

Returns the measured K obs / 1 for the input molecule. Input: CC(C)C[C@H](NC(=O)OCc1ccccc1)C(=O)N[C@@H](Cc1ccccc1)C(=O)N[C@H](/C=C/S(C)(=O)=O)CCC(N)=O
160

Returns the measured K obs / 1 for the input molecule. Input: CO/N=C/C=C/[C@H](CCC(N)=O)NC(=O)[C@H](Cc1ccccc1)NC(=O)[C@H](CC(C)C)NC(=O)OCc1ccccc1
0

Returns the measured K obs / 1 for the input molecule. Input: CC(C)C[C@H](NC(=O)OCc1ccccc1)C(=O)N[C@@H](Cc1ccccc1)C(=O)N[C@H](/C=C/C(=O)N(C)c1ccccc1)CCC(N)=O
580

Returns the measured K obs / 1 for the input molecule. Input: CC(C)C[C@H](NC(=O)OCc1ccccc1)C(=O)N[C@@H](Cc1ccccc1)C(=O)N[C@H](/C=C/C(=O)c1ccco1)CCC(N)=O
460000

Returns the measured K obs / 1 for the input molecule. Input: CC(C)C[C@H](NC(=O)OCc1ccccc1)C(=O)N[C@@H](Cc1ccccc1)C(=O)N[C@H](/C=C/C(=O)c1ccc([N+](=O)[O-])cc1)CCC(N)=O
310000

----------
Test system: HeLa
Experiment: Formazan production in HRV-14 virus infected cells
Type: functional, cell-based
Conditions: Homo sapiens
measurement type: pEC50
Answer as the number alone; pEC50 is minus log10 of concentration in mol/L.

Returns the measured pEC50 for the input compound. Input: CC(C)C[C@H](NC(=O)OCc1ccccc1)C(=O)N[C@@H](Cc1ccccc1)C(=O)N[C@H](/C=C/C(=O)OC1CCCC1)CCC(N)=O
6.25

Returns the measured pEC50 for the input compound. Input: COC(=O)/C=C/[C@H](CCC(N)=O)NC(=O)[C@H](Cc1ccccc1)NC(=O)[C@H](CC(C)C)NC(=O)OCc1ccccc1
5.89

Returns the measured pEC50 for the input compound. Input: COc1ccc(C(=O)/C=C/[C@H](CCC(N)=O)NC(=O)[C@H](Cc2ccccc2)NC(=O)[C@H](CC(C)C)NC(=O)OCc2ccccc2)cc1
4.66

Returns the measured pEC50 for the input compound. Input: CC(C)C[C@H](NC(=O)OCc1ccccc1)C(=O)N[C@@H](Cc1ccccc1)C(=O)N[C@H](/C=C/C(=O)N1CCc2cccc(Cl)c21)CCC(N)=O
4.25

----------
Tested on: HeLa
Assay: Concentration of compound that decreased the percentage of formazan production in treated HRV-14 virus infected cells to that produced in uninfected cells
Assay type: functional
Details: Homo sapiens
Exercise: for every item that follows, state its recorded CC50.

Returns the measured CC50 for the input compound. Input: CC(C)C[C@H](NC(=O)OCc1ccccc1)C(=O)N[C@@H](Cc1ccccc1)C(=O)N[C@H](/C=C/C(=O)N(C)C)CCC(N)=O
> 100 µM

Returns the measured CC50 for the input compound. Input: CC(C)C[C@H](NC(=O)OCc1ccccc1)C(=O)N[C@@H](Cc1ccccc1)C(=O)N[C@H](/C=C/C(=O)N1CCc2cc(Cl)ccc21)CCC(N)=O
56 µM

Returns the measured CC50 for the input compound. Input: COc1ccc(C(=O)/C=C/[C@H](CCC(N)=O)NC(=O)[C@H](Cc2ccccc2)NC(=O)[C@H](CC(C)C)NC(=O)OCc2ccccc2)cc1
100 µM

Returns the measured CC50 for the input compound. Input: CC(C)C[C@H](NC(=O)OCc1ccccc1)C(=O)N[C@@H](Cc1ccccc1)C(=O)N[C@H](/C=C/C(=O)N1CCCC1)CCC(N)=O
> 100 µM

Where these numbers come from: ChEMBL document CHEMBL1131036
